Form field: %Inh (one value per entry).
# Tested on: TSSK1B
# CONDITION SET: concentration: 1 μM, replicates: in singlicate; n = 1;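 further: KINOMEscan kinase panel screen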
Write the value in % as a bare number.

> print(dat)
                                   compound  readout.label  observed.result
1  CN1C(=O)C(Nc2cc(Cl)c(O)c(Cl)c2)=C(c2ccc(Cl)cc2)C1=O           %Inh                0

Exam item: TSSK1B / %Inh / Nc1n[nH]c2ncc(-c3ccccc3)cc12 : value?
Marked response: 16

Exam item: Thanks! And CCS(=O)c1ccc(-c2coc3ccc(-c4nnc(C)o4)cc23)cc1 (centres unmarked) ?
Marked response: 0

Exam item: Thanks! And CCC(=O)c1c(-c2ccccc2)c2cc(Cl)ccc2c(=O)n1Cc1cc(S(C)(=O)=O)n(CC(F)F)n1 ?
Marked response: 0

Exam item: Thanks! And CCc1nc(-c2cccc(C)c2)c(-c2ccncc2)s1 ?
Marked response: 0

Exam item: Thanks! And Cc1nnc(-c2ccc(C)c(-c3ccc(C(=O)O)cc3)c2)o1 ?
Marked response: 10

Exam item: Thanks! And CCCNC(=O)Nc1ccc(Oc2ncnc3ccn(C)c23)cc1 ?
Marked response: 0

Exam item: Thanks! And Cc1nn2c(=O)cc(N3CCOCC3)nc2n1Cc1cccc(Cl)c1Cl ?
Marked response: 0

Exam item: Thanks! And OCCCNc1nccc(-c2c(-c3cccc(C(F)(F)F)c3)nn3cc(C(F)(F)F)ccc23)n1 ?
Marked response: 0

Exam item: Thanks! And Nc1ncnc2c1ncn2-c1cccc(F)c1 ?
Marked response: 22

Exam item: Thanks! And O=C(Nc1ccc2c(c1)OCO2)NC1CCN(c2ccnc(NCc3ccc(F)cc3)n2)CC1 ?
Marked response: 0

###

# Test system: DRAK2
# Construct: gene STK17B
# CONDITION SET: concentration: 1 μM, replicates: in singlicate; n = 1
READOUT LABEL: %Inh (%)
Write the value in % as a bare number.

> print(dat)
                                   molecule    tgt  readout.label  observed.result
1  CC(C)(C)c1ccc(C(=O)Nc2cn3cc(-c4ccccc4)ccc3n2)cc1  DRAK2           %Inh                0
2  COc1cc2ncn(-c3cc(OCc4ccncc4)c(C(N)=O)s3)c2cc1OC  DRAK2           %Inh                0
3  COc1cccc(C2=C(N(C)c3ccccc3)C(=O)NC2=O)c1  DRAK2           %Inh                0
4              Nc1n[nH]c2ncc(-c3ccccc3)cc12  DRAK2           %Inh                0
5  Cc1nnc(-c2ccc3ncn(-c4ccc(S(C)=O)cc4)c3c2)o1 (stereo not drawn)  DRAK2           %Inh               18

Exam item: %Inh lookup needed for O=C(Nc1ccc2c(c1)OCO2)NC1CCN(c2ccnc(NCc3ccc(F)cc3)n2)CC1 , thanks.
Marked response: 0

Exam item: Thanks! And Fc1cccc(CSc2nnc(-c3ccc4c(c3)CCO4)o2)c1 ?
Marked response: 18

Exam item: Thanks! And Cc1cc(Nc2nc(-c3cccc(C)n3)nc3ccccc23)ccn1 ?
Marked response: 0

Exam item: Thanks! And COc1cccc(-n2cnc3c(N)ncnc32)c1 ?
Marked response: 0

Exam item: Thanks! And COc1ccc(-c2cc3c(C)nc(N)nc3n([C@H]3CC[C@H](OCCO)CC3)c2=O)cn1 ?
Marked response: 14

Exam item: Thanks! And FC(F)(F)c1ccc(-c2ncn(CCCN3CCOCC3)c2-c2ccncc2)cc1 ?
Marked response: 6

Exam item: Thanks! And COc1ccc(-c2coc3ccc(-c4nnc(SCc5cccc(C#N)c5)o4)cc23)cc1 ?
Marked response: 7

Exam item: Thanks! And COc1ccc(CNC(=O)NC2CCN(c3ccnc(Nc4ccc(F)cc4)n3)C2)cc1 (stereo not drawn) ?
Marked response: 0

Exam item: Thanks! And Cc1ccc(-c2ccc3c(ccc4sc5c(c43)NC[C@@H](C)N=C5N(C)C)n2)cn1 ?
Marked response: 0

Exam item: Thanks! And COC(=O)c1c(-c2ccccc2)c2cc(Br)ccc2c(=O)n1Cc1ccc(S(C)(=O)=O)cc1 ?
Marked response: 0

###

# Tested on: PRKCD
# CONDITION SET: concentration: 1 μM, replicates: in singlicate; n = 1
Form field: %Inh (one value per entry).
Write the value in % as a bare number.

Some solved cases for reference:
> print(dat)
                                   compound  observed.result
1    Fc1cccc(CSc2nnc(-c3ccc4c(c3)CCO4)o2)c1                7
2  COc1cc2nccc(Nc3ccc(OCc4ccc(NC(C)=O)cc4)cc3)c2cc1OC.Cl [GW440135]               11
3  COC(=O)c1c(-c2ccccc2)c2cc(Br)ccc2c(=O)n1Cc1ccc(NC(=O)CCC(=O)O)cc1                0
4  O=C(Nc1ccc2c(c1)OCO2)NC1CCN(c2ccnc(NCc3ccc(F)cc3)n2)CC1 [GSK1379859]                7
5  Nc1nccc2scc(-c3ccc4c(c3)CCN4C(=O)Cc3ccccc3)c12 [GSK2576924]                0

Exam item: %Inh lookup needed for CN1C(=O)C(Nc2cc(Cl)c(O)c(Cl)c2)=C(c2ccc(Cl)cc2)C1=O [SB-404321] , thanks.
Marked response: 0

Exam item: Thanks! And O=C(Nc1n[nH]c2nc(-c3ccccc3)c(Br)cc12)C1CC1 [SB-708998] ?
Marked response: 0

Exam item: Thanks! And Nc1nc(N)c2nc(-c3ccccc3)[nH]c2n1 [SKF-12778] ?
Marked response: 11

###

# Tested on: MARK3
# CONDITION SET: concentration: 1 μM, replicates: in singlicate; n = 1
READOUT LABEL: %Inh
Write down the value, and be sure its unit follows.

Exam item: %Inh lookup needed for Cc1nnc(-c2ccc(C)c(-c3ccc(C(=O)O)cc3)c2)o1 , thanks.
Marked response: 0%

Exam item: Thanks! And COc1cc(OC)cc(-c2cc3cnc(N)nc3nc2NC(=O)NC(C)(C)C)c1 ?
Marked response: 0%

Exam item: Thanks! And O=C(Nc1ccc2c(c1)OCO2)NC1CCN(c2ccnc(NCc3ccc(F)cc3)n2)CC1 ?
Marked response: 0%

Exam item: Thanks! And COc1cc2ncn(-c3cc(OCc4ccc(S(C)(=O)=O)cc4)c(C(N)=O)s3)c2cc1OC ?
Marked response: 0%

Exam item: Thanks! And Nc1ncnc2c1ncn2-c1ccc(Cl)cc1 ?
Marked response: 3%

###

Form field: %Inh (one value per entry).
# Tested on: VRK2
# CONDITION SET: concentration: 1 μM, replicates: in singlicate; n = 1
Write the value in % as a bare number.

> print(dat)
                                   compound  value.unit  observed.result
1  CCC(=O)c1c(-c2ccccc2)c2cc(Cl)ccc2c(=O)n1Cc1cc(C(=O)NC2CC2)n(C)n1           %                0

Exam item: %Inh lookup needed for O=C(NCCNc1ccnc(Nc2ccc(F)cc2)n1)Nc1ccc2c(c1)OCO2 , thanks.
Marked response: 0

###

# System: PIK3CB
# CONDITION SET: concentration: 1 μM, replicates: in singlicate; n = 1
Form field: %Inh (one value per entry).
Write the value in % as a bare number.

> print(dat)
                                   molecule  observed.result
1  COc1cc2ncn(-c3cc(OCc4ccncc4)c(C(N)=O)s3)c2cc1OC                0
2  COc1cc2nccc(Nc3cccc(Oc4ccccc4)c3)c2cc1OC.Cl                0
3  Cc1cc(Nc2nc(-c3cccc(C)n3)nc3ccccc23)ccn1                0

Exam item: %Inh lookup needed for Nc1nc(N)c2nc(-c3ccccc3)[nH]c2n1 , thanks.
Marked response: 0

Exam item: Thanks! And Cc1nnc(-c2ccc3ncn(-c4ccc(S(C)=O)cc4)c3c2)o1 (centres unmarked) ?
Marked response: 2

Exam item: Thanks! And COc1ccc(CNC(=O)NC2CCN(c3ccnc(Nc4ccc(F)cc4)n3)C2)cc1 (centres unmarked) ?
Marked response: 0

Exam item: Thanks! And O=C(Nc1ccc2c(c1)OCO2)NC1CCN(c2ccnc(NCc3ccc(F)cc3)n2)CC1 ?
Marked response: 0

###

# System: LATS2
# CONDITION SET: concentration: 1 μM, replicates: in singlicate; n = 1
READOUT LABEL: %Inh (%)
Write the value in % as a bare number.

Exam item: LATS2 / %Inh / CCn1c(-c2nonc2N)nc2ccccc21 : value?
Marked response: 82

Exam item: Thanks! And CN1C(=O)C(Nc2ccccc2)=C(c2ccccc2)C1=O ?
Marked response: 0

Exam item: Thanks! And Nc1ncnc2c1ncn2-c1cccc2ccccc12 ?
Marked response: 0

Exam item: Thanks! And CCC(=O)c1c(-c2ccccc2)c2cc(Cl)ccc2c(=O)n1Cc1cc(S(C)(=O)=O)n(CCC(C)(C)O)n1 ?
Marked response: 17

Exam item: Thanks! And COC(=O)c1c(-c2ccccc2)c2cc(Br)ccc2c(=O)n1Cc1ccc(NC(=O)CCC(=O)O)cc1 ?
Marked response: 17

Exam item: Thanks! And COc1ccc(Nc2nccc(N3CCC(NS(=O)(=O)c4ccc(NC(C)=O)cc4)C3)n2)cc1 (stereo not shown) ?
Marked response: 0
